Provide the recorded IC50 for the entries that follow.
- Tested on: BEAS2B cells
- Method: Poly I:C-induced ICAM-1 expression in BEAS2B cells
- Format: cell-based
- Measurement Context: Homo sapiens, BEAS-2B, 18 h after poly I:C transfection, read-out: PolyIC/ICAM1 IC50 (BEAS2B)
Give the number; nM is assumed, so skip it.

# input Quote IC50 reported for COCC(=O)Nc1cc(Oc2ccc(NC(=O)Nc3cc(C(C)(C)C)nn3-c3ccc(C)cc3)c3ccccc23)ccn1 [Reference Compound, reference compound] please.
# output 3.8

# input Quote IC50 reported for "CCc1cncc(Nc2cc(COc3ccc(NC(=O)Nc4cc(C(C)(C)C)nn4-c4ccc(C)cc4)c4ccccc34)ccn2)n1" please.
# output 61.1
